Target: CSF1R (Homo sapiens (Human), UniProt P07333)
Sequence (P07333 20-972): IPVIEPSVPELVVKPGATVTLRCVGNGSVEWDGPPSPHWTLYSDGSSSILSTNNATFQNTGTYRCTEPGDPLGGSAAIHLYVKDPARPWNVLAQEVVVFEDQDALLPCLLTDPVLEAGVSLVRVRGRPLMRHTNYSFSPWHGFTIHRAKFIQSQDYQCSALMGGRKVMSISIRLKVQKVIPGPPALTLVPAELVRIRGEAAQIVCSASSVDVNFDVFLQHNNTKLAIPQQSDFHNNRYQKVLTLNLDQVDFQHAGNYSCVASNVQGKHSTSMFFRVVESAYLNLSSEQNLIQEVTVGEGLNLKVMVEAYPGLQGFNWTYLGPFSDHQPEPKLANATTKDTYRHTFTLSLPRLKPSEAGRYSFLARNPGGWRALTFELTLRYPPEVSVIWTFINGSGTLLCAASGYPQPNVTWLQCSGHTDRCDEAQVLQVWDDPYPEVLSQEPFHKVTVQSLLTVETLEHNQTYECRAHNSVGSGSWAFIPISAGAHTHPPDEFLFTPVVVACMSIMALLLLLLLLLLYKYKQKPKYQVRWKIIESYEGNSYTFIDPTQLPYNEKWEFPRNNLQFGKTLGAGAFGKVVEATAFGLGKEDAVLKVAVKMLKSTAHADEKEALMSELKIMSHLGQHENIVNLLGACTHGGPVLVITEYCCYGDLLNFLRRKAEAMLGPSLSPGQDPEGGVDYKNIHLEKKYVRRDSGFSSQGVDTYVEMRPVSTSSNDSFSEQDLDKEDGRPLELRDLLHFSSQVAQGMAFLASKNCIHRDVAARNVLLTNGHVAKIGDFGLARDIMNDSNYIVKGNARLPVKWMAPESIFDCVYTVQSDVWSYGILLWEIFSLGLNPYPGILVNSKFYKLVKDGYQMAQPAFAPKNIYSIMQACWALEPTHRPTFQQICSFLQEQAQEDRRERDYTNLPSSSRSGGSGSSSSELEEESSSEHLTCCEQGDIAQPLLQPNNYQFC
Experiment: Inhibition of CSF1R kinase activity (HTRF KinEASE-TK)
Conditions: biochemical, HTRF KinEASE-TK
Reported property: IC50

Consider the compound shown here: Cc1cc(F)c(C(=O)Nc2ccn(CC3CC3)n2)cc1NC(=O)c1cnc(N)s1 [Example 151] What is its recorded IC50?
100 to 1000 nM

Try the compound Cc1cc(F)c(C(=O)Nc2nc3c(s2)COCC3)cc1NC(=O)c1cnc(N)s1 [Example 145]
100 to 1000 nM

Try the compound Cc1cc(F)c(C(=O)NCCCN2CCOCC2)cc1NC(=O)c1cnc(N)s1 [Example 164]
> 1000 nM

Try the compound Cc1cc(F)c(C(=O)N[C@H]2CCOC2)cc1NC(=O)c1cnc(N)s1 [Example 194]
> 1000 nM

Try the compound Cc1ncc(C(=O)Nc2cc(C(=O)Nc3ccc(OCC(F)F)cn3)c(F)cc2C)s1 [Example 36]
> 1000 nM

---

Molecular target: CSF1R (Homo sapiens (Human), UniProt P07333)
Assay: Inhibition of CSF1R kinase activity (HTRF KinEASE-TK)
Conditions: biochemical, HTRF KinEASE-TK
pIC50: −log10 of the molar value.
Reported pIC50 values for the following compounds.

Cc1cc(F)c(C(=O)Nc2ccn(C(C)(C)C)n2)cc1NC(=O)c1cnc(N)s1 [Example 141]    6.00 to 7.00
COc1ccc(NC(=O)c2cc(NC(=O)c3cnc(N)s3)c(C)cc2F)c(F)c1 [Example 228]    6.00 to 7.00

Alright, here's another compound for you.
Consider the compound shown here: Cc1ncc(C(=O)Nc2cc(C(=O)Nc3cnc(OC[C@@H]4CC4(F)F)cn3)c(F)cc2C)s1 [Example 58] What is its recorded pIC50?
< 6.00

---

Reported IC50 values for the following compounds.
Target: PDGFRα (Homo sapiens (Human))
Sequence (P16234 24-1089): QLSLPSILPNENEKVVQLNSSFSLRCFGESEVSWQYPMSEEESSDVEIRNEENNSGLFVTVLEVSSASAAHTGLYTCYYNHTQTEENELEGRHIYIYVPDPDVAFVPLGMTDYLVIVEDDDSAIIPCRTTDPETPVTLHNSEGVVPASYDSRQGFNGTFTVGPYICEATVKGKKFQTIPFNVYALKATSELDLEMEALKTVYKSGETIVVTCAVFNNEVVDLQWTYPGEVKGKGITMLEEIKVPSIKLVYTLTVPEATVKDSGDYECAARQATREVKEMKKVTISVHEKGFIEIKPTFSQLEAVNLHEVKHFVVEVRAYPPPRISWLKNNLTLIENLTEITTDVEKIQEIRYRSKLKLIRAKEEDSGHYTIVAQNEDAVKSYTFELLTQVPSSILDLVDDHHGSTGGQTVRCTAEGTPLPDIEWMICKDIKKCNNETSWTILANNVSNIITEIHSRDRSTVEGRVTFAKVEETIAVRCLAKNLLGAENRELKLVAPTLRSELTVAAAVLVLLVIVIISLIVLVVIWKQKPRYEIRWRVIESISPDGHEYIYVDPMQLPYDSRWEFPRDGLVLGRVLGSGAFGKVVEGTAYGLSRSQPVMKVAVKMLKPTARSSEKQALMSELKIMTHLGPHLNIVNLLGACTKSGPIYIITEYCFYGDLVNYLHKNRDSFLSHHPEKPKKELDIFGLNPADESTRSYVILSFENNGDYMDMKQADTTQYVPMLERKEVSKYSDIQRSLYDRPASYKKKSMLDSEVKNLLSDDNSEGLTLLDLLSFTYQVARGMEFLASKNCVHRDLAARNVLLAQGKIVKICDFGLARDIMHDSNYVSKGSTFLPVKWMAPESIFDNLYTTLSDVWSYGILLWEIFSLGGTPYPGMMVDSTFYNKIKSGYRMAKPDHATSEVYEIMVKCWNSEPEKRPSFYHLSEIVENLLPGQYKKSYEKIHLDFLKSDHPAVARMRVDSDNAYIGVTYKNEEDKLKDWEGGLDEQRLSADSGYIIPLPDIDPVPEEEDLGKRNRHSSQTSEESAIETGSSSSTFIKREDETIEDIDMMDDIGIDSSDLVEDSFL
Experiment: Inhibition of PDGFRα kinase activity (HTRF KinEASE-TK)
Settings: biochemical, HTRF KinEASE-TK

Before answering, review these 5 worked examples.
Cc1cc(F)c(C(=O)NCc2ccn(C(C)C)n2)cc1NC(=O)c1cnc(N)s1 [Example 253]    100 to 1000 nM
Cc1ncc(C(=O)Nc2cc(C(=O)Nc3ccc(CC(F)(F)F)cn3)c(C)cc2C)s1 [Example 75]    > 1000 nM
Nc1ncc(C(=O)Nc2cc(C(=O)Nc3ccc(OC4CC4)cn3)c(F)cc2Cl)s1 [Example 209]    > 1000 nM
COCc1ccc(NC(=O)c2cc(NC(=O)c3cnc(N)s3)c(F)cc2F)nc1 [Example 215]    > 1000 nM
Cc1cc(F)c(C(=O)Nc2ccc(OC3CC3)nn2)cc1NC(=O)c1cnc(N)s1 [Example 258]    100 to 1000 nM

Consider the compound shown here: Cc1ncc(NC(=O)c2cc(NC(=O)c3cnc(N)s3)c(C)cc2F)s1 [Example 166] What is its recorded IC50?
> 1000 nM

Try the compound Cc1cc(F)c(C(=O)Nc2ccn([C@H]3CCOC3)n2)cc1NC(=O)c1cnc(N)s1 [Example 191]
> 1000 nM

Try the compound CCc1ccc(NC(=O)c2cc(NC(=O)c3cnc(N)s3)c(F)cc2F)nc1 [Example 214]
> 1000 nM

Try the compound Cc1ncc(C(=O)Nc2cc(C(=O)NCC3(F)CCC3)c(F)cc2C)s1 [Example 68]
> 1000 nM

Try the compound Cc1cc(F)c(C(=O)Nc2ccn(C)n2)cc1NC(=O)c1cnc(N)s1 [Example 163]
> 1000 nM

Try the compound Cc1ncc(C(=O)Nc2cc(C(=O)Nc3ccn(CC4CC4)n3)c(F)cc2C)s1 [Example 70]
> 1000 nM

Try the compound COc1ccc(NC(=O)c2cc(NC(=O)c3cnc(N)s3)c(F)cc2F)nc1 [Example 211]
> 1000 nM

Try the compound CO[C@@H](C)c1ccc(NC(=O)c2cc(NC(=O)c3cnc(N)s3)c(C)cc2F)nc1 [Example 257]
> 1000 nM

Try the compound CO[C@H]1C[C@@H](n2ccc(NC(=O)c3cc(NC(=O)c4cnc(N)s4)c(C)cc3F)n2)C1 [Example 185]
> 1000 nM

Try the compound Cc1ncc(C(=O)Nc2cc(C(=O)Nc3ccn(C4CCC4)n3)c(F)cc2C)s1 [Example 61]
> 1000 nM

Try the compound Cc1cc(F)c(C(=O)Nc2ccc(F)cc2)cc1NC(=O)c1cnc(N)s1 [Example 233]
> 1000 nM

Try the compound Cc1cc(F)c(C(=O)Nc2ccc(OC3CCC3)cn2)cc1NC(=O)c1cnc(N)s1 [Example 134]
100 to 1000 nM
